- study.system: HiBit-WIZ fusion protein (Homo sapiens, UniProt O95785+Q96SW2)
- Sequence (O95785 whole entry, the tested form may be a part): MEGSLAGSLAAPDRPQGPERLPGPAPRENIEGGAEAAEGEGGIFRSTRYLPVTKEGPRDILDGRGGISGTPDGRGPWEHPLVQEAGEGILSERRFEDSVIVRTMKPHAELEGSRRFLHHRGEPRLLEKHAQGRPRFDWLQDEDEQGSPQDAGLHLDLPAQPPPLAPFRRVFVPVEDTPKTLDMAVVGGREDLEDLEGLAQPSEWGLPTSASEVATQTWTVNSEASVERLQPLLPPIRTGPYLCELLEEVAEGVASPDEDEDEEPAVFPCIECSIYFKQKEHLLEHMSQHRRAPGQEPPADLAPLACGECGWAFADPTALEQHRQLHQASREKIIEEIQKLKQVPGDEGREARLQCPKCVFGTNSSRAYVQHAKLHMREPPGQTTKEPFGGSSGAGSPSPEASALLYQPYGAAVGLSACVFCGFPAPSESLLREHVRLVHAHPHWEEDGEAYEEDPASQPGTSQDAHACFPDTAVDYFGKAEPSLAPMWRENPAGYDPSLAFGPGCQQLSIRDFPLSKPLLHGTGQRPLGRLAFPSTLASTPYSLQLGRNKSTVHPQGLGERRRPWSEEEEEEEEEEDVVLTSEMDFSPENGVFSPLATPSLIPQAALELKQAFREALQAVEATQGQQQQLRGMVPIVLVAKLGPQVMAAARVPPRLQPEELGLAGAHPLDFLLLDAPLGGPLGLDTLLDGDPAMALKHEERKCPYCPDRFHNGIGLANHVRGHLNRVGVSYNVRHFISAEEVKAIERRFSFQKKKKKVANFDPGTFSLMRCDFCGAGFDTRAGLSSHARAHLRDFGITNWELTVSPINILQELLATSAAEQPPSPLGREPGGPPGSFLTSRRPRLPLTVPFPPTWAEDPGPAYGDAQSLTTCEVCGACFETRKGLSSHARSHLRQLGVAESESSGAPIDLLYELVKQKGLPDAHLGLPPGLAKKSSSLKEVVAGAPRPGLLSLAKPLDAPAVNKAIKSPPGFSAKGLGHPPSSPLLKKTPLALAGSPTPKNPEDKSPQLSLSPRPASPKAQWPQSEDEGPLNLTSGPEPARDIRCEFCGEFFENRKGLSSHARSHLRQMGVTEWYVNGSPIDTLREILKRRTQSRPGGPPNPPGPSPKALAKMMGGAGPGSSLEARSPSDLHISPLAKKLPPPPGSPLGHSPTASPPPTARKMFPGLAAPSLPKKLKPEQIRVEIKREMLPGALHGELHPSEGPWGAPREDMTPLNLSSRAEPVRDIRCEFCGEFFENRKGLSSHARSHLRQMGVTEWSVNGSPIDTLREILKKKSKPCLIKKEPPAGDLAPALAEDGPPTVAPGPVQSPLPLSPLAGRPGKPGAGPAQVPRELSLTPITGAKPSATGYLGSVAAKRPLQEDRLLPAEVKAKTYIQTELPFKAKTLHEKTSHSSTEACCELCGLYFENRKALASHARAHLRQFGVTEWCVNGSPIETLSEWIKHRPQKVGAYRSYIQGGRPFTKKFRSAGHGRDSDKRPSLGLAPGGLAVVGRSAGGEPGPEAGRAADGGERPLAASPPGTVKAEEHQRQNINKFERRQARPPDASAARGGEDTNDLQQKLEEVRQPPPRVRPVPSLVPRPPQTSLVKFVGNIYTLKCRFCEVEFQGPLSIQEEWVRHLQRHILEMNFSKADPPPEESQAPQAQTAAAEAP
- Sequence (Q96SW2 whole entry, the tested form may be a part): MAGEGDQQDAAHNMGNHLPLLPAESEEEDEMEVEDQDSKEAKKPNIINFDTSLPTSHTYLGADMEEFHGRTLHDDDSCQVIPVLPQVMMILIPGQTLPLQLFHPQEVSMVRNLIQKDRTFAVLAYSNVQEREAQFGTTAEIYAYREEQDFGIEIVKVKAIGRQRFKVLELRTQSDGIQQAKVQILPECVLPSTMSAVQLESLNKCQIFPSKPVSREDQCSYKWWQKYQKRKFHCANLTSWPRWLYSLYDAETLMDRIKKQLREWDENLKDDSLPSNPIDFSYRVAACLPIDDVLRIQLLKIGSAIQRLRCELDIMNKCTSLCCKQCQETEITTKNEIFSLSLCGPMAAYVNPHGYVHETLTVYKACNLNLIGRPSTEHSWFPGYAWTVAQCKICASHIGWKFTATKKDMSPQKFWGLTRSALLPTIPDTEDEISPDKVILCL
- Sequence (Q16531 whole entry partner, the tested form may be a part): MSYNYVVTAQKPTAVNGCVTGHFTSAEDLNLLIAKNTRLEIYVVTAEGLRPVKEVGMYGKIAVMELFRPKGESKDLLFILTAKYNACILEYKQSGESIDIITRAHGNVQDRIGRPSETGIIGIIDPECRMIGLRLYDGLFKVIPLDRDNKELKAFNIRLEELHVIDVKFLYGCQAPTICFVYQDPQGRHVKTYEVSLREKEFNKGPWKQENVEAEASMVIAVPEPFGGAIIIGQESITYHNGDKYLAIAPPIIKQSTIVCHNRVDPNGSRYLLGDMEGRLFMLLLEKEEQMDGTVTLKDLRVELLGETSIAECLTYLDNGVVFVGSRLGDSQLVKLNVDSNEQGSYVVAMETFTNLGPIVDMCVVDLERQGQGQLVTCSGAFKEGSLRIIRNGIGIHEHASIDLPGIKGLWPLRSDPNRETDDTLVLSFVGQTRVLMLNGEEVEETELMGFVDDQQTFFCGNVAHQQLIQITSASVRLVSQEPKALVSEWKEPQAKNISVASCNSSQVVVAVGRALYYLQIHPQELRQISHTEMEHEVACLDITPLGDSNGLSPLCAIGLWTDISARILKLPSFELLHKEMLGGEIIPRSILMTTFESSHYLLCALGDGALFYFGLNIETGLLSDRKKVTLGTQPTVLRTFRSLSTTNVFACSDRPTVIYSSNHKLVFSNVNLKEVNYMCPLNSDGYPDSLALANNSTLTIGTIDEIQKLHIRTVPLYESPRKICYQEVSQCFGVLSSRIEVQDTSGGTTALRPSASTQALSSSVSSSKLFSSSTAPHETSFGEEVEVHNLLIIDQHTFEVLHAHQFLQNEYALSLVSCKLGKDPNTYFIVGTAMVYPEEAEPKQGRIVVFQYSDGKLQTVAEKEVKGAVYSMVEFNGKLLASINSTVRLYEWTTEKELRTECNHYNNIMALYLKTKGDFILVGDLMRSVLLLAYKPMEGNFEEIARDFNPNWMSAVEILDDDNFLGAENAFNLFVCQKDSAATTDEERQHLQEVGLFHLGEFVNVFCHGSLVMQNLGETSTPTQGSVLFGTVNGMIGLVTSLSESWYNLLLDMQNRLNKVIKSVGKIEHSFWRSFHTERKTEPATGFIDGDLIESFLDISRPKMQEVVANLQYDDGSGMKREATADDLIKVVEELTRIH
- measurement.description: Quantification of WIZ protein levels in HiBit tag fusion protein assay (WIZ HiBit assay in 293T cells)
- Format: cell-based
- experimental.parameters: WIZ HiBit assay in 293T cells; 10-point, 5-fold dose response, highest concentration 25 μM, about 18 hours; read-out: WIZ AC50
measure: DC50 (nM)

- molecule: "COc1ccccc1CN1CCCC[C@@H]1COc1ccc2c(c1)CN(C1CCC(=O)NC1=O)C2=O (stereo partly shown)"
  u: "nM"
  DC50: 8.8
- molecule: "CCc1cc(CN2CCCC[C@@H]2COc2ccc3c(c2)CN(C2CCC(=O)NC2=O)C3=O)ccc1C1CCN(CC)CC1 (stereo partly shown)"
  u: "nM"
  DC50: 160

[P] O=C1CCC(N2Cc3cc(OC[C@H]4CCCCN4Cc4cccc5c4OCCO5)ccc3C2=O)C(=O)N1 (stereo partly shown)
[Q] O=C1CCC(N2Cc3cc(OC[C@H]4CCCCN4Cc4nccn4Cc4ccccc4)ccc3C2=O)C(=O)N1 (stereo partly shown) [Compound I-50ax]
Smaller DC50 value, P vs Q ? Response format: the label of the selected entry. P
